Each entry below lists one item and its recorded MIC value.
# Tested on: N. gonorrhoeae WHO L
# EXPERIMENT_SUMMARY: Liquid broth MIC in Fastidious broth
# Assay type: cell-based
# TEST_SETTINGS: Neisseria gonorrhoeae; N. gonorrhoeae strain WHO L; Fastidious broth; read-out: Minimum Inhibitory Concentration, N. gonorrhoeae WHO L

For orientation, consider the following solved cases.
Query: MIC; subject: CCN1CCN(C(=O)NC(C(=O)N[C@H]2Cc3cccc(C(=O)O)c3OB2O)c2cccc(NC(=O)c3cccnc3)c2)C(=O)C1=O (stereo partly drawn) [Example 97]
> 64 µg/mL

Queued: CCN1CCN(C(=O)NC(C(=O)N[C@H]2Cc3cccc(C(=O)O)c3OB2O)c2cc(O)cc(O)c2)C(=O)C1=O (mixture of isomers) [Example 79]
16 to 32 µg/mL

Query compound follows.
Query: MIC; subject: NCCN1CCN(C(=O)NC(C(=O)N[C@H]2Cc3cccc(C(=O)O)c3OB2O)c2cc(F)c(O)c(Cl)c2)C(=O)C1=O (stereo partly drawn) [Example 163]
> 64 µg/mL

====

# System: E. coli 901C
# EXPERIMENT_SUMMARY: Broth microdilution MIC in CAMHB
# Format: cell-based
# TEST_SETTINGS: Escherichia coli; E. coli 901C (hyper-permeable); MHB; read-out: Minimum Inhibitory Concentration, E. coli 901C
# Excerpt: Example III: In Vitro Antibacterial Assays To determine the ability of test compounds to inhibit the growth of bacterial strains, classic cell based broth microdilution minimum inhibitory concentration (MIC) assays were employed. […] Briefly, cryo-preserved bacterial cultures of challenge strains are streaked for isolation on appropriate agar medium, in this case cation-adjusted Mueller Hinton agar. […] The MIC values are read visually as the lowest concentration well with no bacterial growth.
READOUT_NAME: MIC

Query: MIC; subject: NS(=O)(=O)Nc1ccc(F)c(C(NC(=O)N2CCN(CCF)C(=O)C2=O)C(=O)N[C@H]2Cc3cccc(C(=O)O)c3OB2O)c1 (stereo partly drawn)
< 0.25 µg/mL

Queued: CCN1CCN(C(=O)N[C@H](C(=O)N[C@H]2Cc3cccc(C(=O)O)c3OB2O)c2ccc(C(=O)O)cc2)C(=O)C1=O (single isomer, unassigned)
< 0.25 µg/mL

New cases:
Query: MIC; subject: `CCN1CCN(C(=O)N[C@H](C(=O)N[C@H]2Cc3cccc(C(=O)O)c3OB2O)c2nc(Cl)c(C(=O)O)cc2F)C(=O)C1=O`
0.5 to 1 µg/mL

====

# TARGET: A. baumannii PBP1a (Acinetobacter baumannii)
# Sequence (A0ABX6CK30 entry or part of it): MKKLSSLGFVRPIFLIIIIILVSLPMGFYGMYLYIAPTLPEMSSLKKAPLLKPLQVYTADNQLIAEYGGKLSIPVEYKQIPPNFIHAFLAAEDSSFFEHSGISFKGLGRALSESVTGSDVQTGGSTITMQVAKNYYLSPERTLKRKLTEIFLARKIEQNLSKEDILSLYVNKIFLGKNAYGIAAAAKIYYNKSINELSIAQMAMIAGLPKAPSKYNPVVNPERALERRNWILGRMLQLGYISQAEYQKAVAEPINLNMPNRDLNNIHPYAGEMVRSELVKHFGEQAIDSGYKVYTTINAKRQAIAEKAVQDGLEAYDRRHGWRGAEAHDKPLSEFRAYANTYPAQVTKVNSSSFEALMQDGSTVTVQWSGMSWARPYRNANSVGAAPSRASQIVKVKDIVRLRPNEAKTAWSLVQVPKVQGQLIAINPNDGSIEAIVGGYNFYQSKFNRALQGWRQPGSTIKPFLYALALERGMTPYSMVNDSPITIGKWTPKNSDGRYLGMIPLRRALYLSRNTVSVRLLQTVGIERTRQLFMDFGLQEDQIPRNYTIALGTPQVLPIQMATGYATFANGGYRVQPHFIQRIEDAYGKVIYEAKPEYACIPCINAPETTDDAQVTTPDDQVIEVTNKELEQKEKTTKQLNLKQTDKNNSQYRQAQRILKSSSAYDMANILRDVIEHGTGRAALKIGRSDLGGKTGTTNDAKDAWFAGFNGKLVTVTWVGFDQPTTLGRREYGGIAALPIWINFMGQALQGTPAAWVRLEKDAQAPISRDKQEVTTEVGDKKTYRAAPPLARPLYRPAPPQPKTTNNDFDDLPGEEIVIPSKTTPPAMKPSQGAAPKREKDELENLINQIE
# EXPERIMENT_SUMMARY: Bocillin-FL fluorescence polarization competition binding assay, A. baumannii PBP1a
# TEST_SETTINGS: fluorescence polarization competition binding assay using Bocillin-FL; column 1; read-out: A. baumannii PBP1a Potency
pEC50: −log10 of the molar value.
Each entry below lists one item and its recorded pEC50 value.

For orientation, consider the following solved cases.
Query: pEC50; subject: CCN1CCN(C(=O)NC(C(=O)N[C@H]2Cc3cccc(C(=O)O)c3OB2O)c2c(F)cc(N)cc2F)C(=O)C1=O (stereo partly drawn) [Example 181]
< 4.00

Queued: NS(=O)(=O)c1cc(O)cc(C(NC(=O)N2CCN(Cc3c(F)cc(O)c(O)c3Cl)C(=O)C2=O)C(=O)N[C@H]2Cc3cccc(C(=O)O)c3OB2O)c1 (stereo partly drawn) [Example 132]
4.00 to 4.52

New cases:
Query: pEC50; subject: O=C(NCCN1CCN(C(=O)NC(C(=O)N[C@H]2Cc3ccc(F)c(C(=O)O)c3OB2O)c2ncc(O)cc2F)C(=O)C1=O)c1c(F)cc(O)c(O)c1Cl (stereo partly drawn) [Example 5]
4.52 to 5.00
